# System: MS2 coat protein
# Method notes: apparent KD of MS2 coat protein; designed switch direction (-1 OFF switch, 1 ON switch): -1; higher = weaker reporter binding
# Condition summary: Eterna round: R95; input ligand: none
Recorded apparent KD of MS2 coat protein values for a group of sequences are listed next.

[
  {
    "Chain": "CAUACACAUGAGGAUCACCCAUGUGAGGAUAUGCGUACGUUGUCCGUAGGCGACGUGCGCAGAAGGCGCAUGAG [JL-ex1-3.13 Eli mod] (puzzle: Exclusion 1)",
    "apparent KD of MS2 coat protein": "91.6 nM"
  },
  {
    "Chain": "CGAAAGGUAGGAUAUACGAAGAAAAAGGGUAGAAGAAGAACACAUGAGGAUCACCCAUGUAGAAGGACCAAAGC [Mat - Exclusion 2 - Mod of my Tesla design - D16] (puzzle: Exclusion 2)",
    "apparent KD of MS2 coat protein": "20.5 nM"
  },
  {
    "Chain": "AAUACAAGUAAGAUCCUAAACAUGAGGAUCACCCAUGUGCUCGUCUUAUAAAGUACUAUCACGAAAGUGAUAGUACA [Sensor 3, v1 - 66] (puzzle: Sensor v3, turn-off variant 1)",
    "apparent KD of MS2 coat protein": "37.5 nM"
  },
  {
    "Chain": "UUUUACAUCUAUGGGAGUGACAUGAGGAUCACCCAUGUAUGUCUUGUUUUUUGUUCGUCUAGGACUUUCUGAUCAGU [JR_SV3TOV1_Sub033] (puzzle: Sensor v3, turn-off variant 1)",
    "apparent KD of MS2 coat protein": "730 nM"
  },
  {
    "Chain": "UUUUAGAGAGGAUAUAUAUUUUAAAACAUGAGGAUCACCCAUGUAAUUUUAUGGGAGUAAAUAGAAGGCUCAUUUA [JMFs Solution 3] (puzzle: Exclusion 5)",
    "apparent KD of MS2 coat protein": "56.3 nM"
  }
]

###

Recorded apparent KD of MS2 coat protein values for a group of sequences are listed next.
# Test system: MS2 coat protein
# Method notes: apparent KD of MS2 coat protein, switch ON state; designed switch direction (-1 OFF switch, 1 ON switch): 1; higher = weaker reporter binding
# Condition summary: FMN input: 0 or 200 uM; Eterna round: R93 (includes R88 designs)

[
  {
    "Chain": "UAAAAACAUGAGGAUCACCCAUGUGAGAACAUGGGAGGAUAUACAAGGACGAAAGUCAAGGUAGAAGGCCUAAAAU [Mat - Same State 1 - Mod - D175]",
    "apparent KD of MS2 coat protein / nM": 160
  },
  {
    "Chain": "AACUAACAUGAGGAUCACCCAUGUUGCAGCGGUUGAGGAUAUGUGGGUGAAAAUAGCAUGGCAGAAGGCGAGUGUA [SameState1 Malc#25]",
    "apparent KD of MS2 coat protein / nM": 68.8
  },
  {
    "Chain": "CGAAGACAUGAGGAUCACCCAUGUGGGAAUAUGGGAGGAUAUACAAAGACGAGAGUCAGAGUAGAAGGCCUAGGAA [salish99-ss1-104]",
    "apparent KD of MS2 coat protein / nM": 23.3
  },
  {
    "Chain": "UAAAAACAUGAGGAUCACCCAUGUGAGAACAUGGGAGGAUAUACAAAGACGAAAGUCGAAGUAGAAGGCCUAAAAU [Mat - Same State 1 - Mod - D173]",
    "apparent KD of MS2 coat protein / nM": 178
  },
  {
    "Chain": "AAUAAUUAUAUCGAGGAUAUCGGUAAUAAGACAUGAGGAUCACCCAUGUAAUAAGGUUAAAUAAACGAGAAGGCGAAGGGUGAAA [JR_SS002_Sub006]",
    "apparent KD of MS2 coat protein / nM": 80.9
  },
  {
    "Chain": "CGGAGACAUGAGGAUCACCCAUGUGAGAAGAGGCGAGGAUAUCGAAAGAAAGAAGAGAAACGAGAAGGCGCGAGAC [salish99-SS1-077]",
    "apparent KD of MS2 coat protein / nM": 17.7
  },
  {
    "Chain": "GAAAAACAUGAGGAUCACCCAUGUGGAAAUAUGGAAGGAUAUACAAAGACGGAAGUCAAAGUAGAAGGUCUAAAAG [Mat - Same State 1 - Eli mod - D19]",
    "apparent KD of MS2 coat protein / nM": 23.6
  },
  {
    "Chain": "AUAGAACAUGAGGAUCACCCAUGUAAAAAAGCAUGAGGAUAUAUAAGUAAAUAAAAUAAGAUAGAAGGCAUGAUAA [JR_SS001_Sub1701]",
    "apparent KD of MS2 coat protein / nM": 52
  },
  {
    "Chain": "ACUACACAUGAGGAUCACCCAUGUCAGGCCGGACUAGGAUAUUAUAAACCAGAGUAAAAAUAAGAAGGAGUAGGAA [JR_SS001_Sub310]",
    "apparent KD of MS2 coat protein / nM": 39.2
  },
  {
    "Chain": "AAAAAACAUGAGGAUCACCCAUGUCCUCGGACGUGAGGAUAUGUACAGACUUCGGUCUGUACAGAAGGCACGUAAA [SS1 - 1042]",
    "apparent KD of MS2 coat protein / nM": 492
  },
  {
    "Chain": "AGAAUAAAAAGAGAGGAUAUCCAUAAGAAAACAUGAGGAUCACCCAUGUGAAAGAUAAUAAAAUGGGAGAAGGCUCAAAAUAAGA [Topaz 45]",
    "apparent KD of MS2 coat protein / nM": 21
  },
  {
    "Chain": "AAAAUACAUGAGGAUCACCCAUGUGAAAAUAUGGGAGGAUAUACCGAAAAAAAAAAAACGGUAGAAGGCCCUAAAA [SS! 1 MT 6]",
    "apparent KD of MS2 coat protein / nM": 17.9
  },
  {
    "Chain": "GACUAACAUGAGGAUCACCCAUGUAUUCAAACAUGAGGAUAUAUAACACAUCAUCGACGGAUAGAAGGCAUAGAUA [JR_SS001_Sub1207]",
    "apparent KD of MS2 coat protein / nM": 81.1
  },
  {
    "Chain": "AAGUCACAUGAGGAUCACCCAUGUCGUAAACGAUGAGGAUAUAGGAACGAAAGAAAAAAACUAGAAGGUAUAACAA [SameState1-03]",
    "apparent KD of MS2 coat protein / nM": 28.8
  },
  {
    "Chain": "AAAAAACAUGAGGAUCACCCAUGUCUUCGGACGUGAGGAUAUGUACAGACUUCGGUCUGUACAGAAGGCAUGAAAA [SS1 - 1058]",
    "apparent KD of MS2 coat protein / nM": 176
  },
  {
    "Chain": "UAAAAACAUGAGGAUCACCCAUGUGAGAACAUGGGAGGAUAUACGAGGACGAAAGUCAAAGUAGAAGGCCUAAAAG [Garnet 84]",
    "apparent KD of MS2 coat protein / nM": 272
  },
  {
    "Chain": "GGGAGACAUGAGGAUCACCCAUGUGAGAAGAGGCGAGGAUAUCGAAAAAAAAAAAAAAAACGAGAAGGCGCGAGAG [salish99-SS1-005]",
    "apparent KD of MS2 coat protein / nM": 63.7
  },
  {
    "Chain": "UUACGUACGUAUGAGGAUAUCCAUAAUAAGACAUGAGGAUCACCCAUGUAAACAAAACAAUAAUGGGAGAAGGCAUACGUACGAA [Mat - Same state - Malcolm Mod - D135]",
    "apparent KD of MS2 coat protein / nM": 23.2
  },
  {
    "Chain": "AACCGCGCUAUACAGGAUAUCACAAUAUCGACAUGAGGAUCACCCAUGUGACUGGCACCAGUCGGUGAGAAGGGUGAAGUGCGGC [Tilemage]",
    "apparent KD of MS2 coat protein / nM": 149
  },
  {
    "Chain": "GGUACUACAGAUCAGGAUAUGUUUGGGUAAACAUGAGGAUCACCCAUGUGUGCCCGAUACACAGCACAGAAGGGAUAACGUGGGA [Ditia]",
    "apparent KD of MS2 coat protein / nM": 16.2
  },
  {
    "Chain": "AAAAUACAUGAGGAUCACCCAUGUGAAAAUAUGGAAGGAUAUCAUGGAAAAAAAAAAACAUGAGAAGGUCCAAAAA [SS! 1 MT 9]",
    "apparent KD of MS2 coat protein / nM": 22
  },
  {
    "Chain": "GAAAAACAUGAGGAUCACCCAUGUAGAAAUAUGGGAGGAUAUACAAAGACGAAAGUCAAAGUAGAAGGCCUAAGAG [Garnet 22]",
    "apparent KD of MS2 coat protein / nM": 31.8
  },
  {
    "Chain": "AUAAUAUUAAGCAAGGAUAUACUAAAGUAAACAUGAGGAUCACCCAUGUGAAAAAAAAAACUCAUGUAGAAGGUGCAUAAAUAAA [moonwalk 11]",
    "apparent KD of MS2 coat protein / nM": 23.9
  },
  {
    "Chain": "AGAAAGAAAAGAGAGGAUAUCUAAAAGAAAACAUGAGGAUCACCCAUGUAAAAGAAAAGAAAAUGGGAGAAGGCUCAUGAGAAAG [JL Skelter Mod 7 In the Red]",
    "apparent KD of MS2 coat protein / nM": 101
  },
  {
    "Chain": "AGAAAUAAAUGAGAGGAUAUCCAAAAGAAAACAUGAGGAUCACCCAUGUAAAAGAAAAUAAAGUGGGAGAAGGCUCGAAAUAAAG [80%, More Helter Skelter 2]",
    "apparent KD of MS2 coat protein / nM": 23.3
  }
]
